System: Ca2+ channel (CaV1.2) (L, diltiazem site)
Assay name: Selectivity panel (Eurofins, CEREP)
Type: binding
Cond: probe radioactive antagonist ligand, 10 μM AX-024, single point, rat Ca2+ channel
Observable: inhibition at 10 μM (%)
Hi! Could you send only the number? It should be in %, unit omitted.

Lab book: inhibition at 10 μM of COc1ccc2c(c1)C(c1ccc(F)cc1)=C(CN1CCCC1)CO2.Cl [AX-024] noted as 66.3
